As shown below, each of these variants has a reported protein stability index value.
B1: COX4I1 (parent)
chain: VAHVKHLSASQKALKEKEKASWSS

# Variants of: B1
# MEASUREMENT PROTOCOL: protein stability index of a GFP-peptide fusion (GPS, HEK-293T) (PSI 1-6); higher = more stable;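 further: lentivirally expressed fusions sorted by FACS into six bins by GFP to DsRed ratio, PSI derived from sequencing read proportions per bin multiplied by bin number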
# EXPERIMENTAL CONDITIONS: c terminus: a fixed tail appended
Reply with the value as a number alone.

Previously resolved entries follow.
>  <VARIANT>
K15R

>  <protein stability index>
3.33

$$$$
>  <VARIANT>
S24C

>  <protein stability index>
3.31

$$$$
>  <VARIANT>
L7M

>  <protein stability index>
3.4

$$$$
>  <VARIANT>
E18A

>  <protein stability index>
2.92

$$$$
>  <VARIANT>
K15C

>  <protein stability index>
3.21

$$$$
>  <VARIANT>
S10C

>  <protein stability index>
1.97

$$$$
>  <VARIANT>
K19C

>  <protein stability index>
2.79

$$$$
>  <VARIANT>
S10F

>  <protein stability index>
2.83

$$$$
>  <VARIANT>
H6R

>  <protein stability index>
3.41

$$$$
>  <VARIANT>
S10W

>  <protein stability index>
2.26

$$$$

Task: Let me know recorded protein stability index for A20I , thanks.
Output: 2.76

Task: For the variant H6L , give its reported protein stability index.
Output: 3.3
